System: Acinetobacter baumannii
experiment.notes: Antibacterial activity against Acinetobacter baumannii AB-3167 by broth microdilution method
Type: functional
reported.property: MIC (µg/mL)

INSERT INTO assay_data (compound, reported_property, value_measured) VALUES
  ('CC(C)(O/N=C(\C(=O)N[C@@H]1C(=O)N(S(=O)(=O)O)[C@@H]1CNS(=O)(=O)NCc1cc(=O)c(O)cn1O)c1csc(N)n1)C(=O)O', 'MIC', 1),
  ('O=C(O)c1cn(C2CC2)c2cc(N3CCNCC3)c(F)cc2c1=O [CIPROFLOXACIN]', 'MIC', 0.06);

P = CC(C)(O/N=C(\C(=O)N[C@@H]1C(=O)N(S(=O)(=O)O)[C@@H]1CNc1cc(C(=O)NCc2cc(=O)c(O)cn2O)ccn1)c1csc(N)n1)C(=O)O
Q = Cn1cc(O)c(=O)cc1C(=O)NC[C@@H]1[C@H](NC(=O)/C(=N\OC(C)(C)C(=O)O)c2csc(N)n2)C(=O)N1S(=O)(=O)O
R = CC(C)(O/N=C(\C(=O)N[C@@H]1C(=O)N(S(=O)(=O)O)[C@@H]1CNC(=O)c1[nH]ccc(=O)c1O)c1csc(N)n1)C(=O)O
[ask] // ascending sort on recorded MIC Write the labels, ordered according to the request.
[reply] P, Q, R
